Test system: MDA-MB-435 melanoma
assay: NCI-60 one-dose screen, 48 h (100 = growth as untreated, 0 = no growth, -100 = all killed)
measurement.conditions: 10 µM unless noted
The panel holds about 83,000 compounds, 20% with a hit somewhere; the sample as a whole holds those more often.
Catalogue of growth values
Please give a number only; it is taken to be in %.

Measured on MDA-MB-435 melanoma, `Cn1cc(-c2csc(-c3cn(CCCN4CCCCC4)c4ccc(F)cc34)n2)c2cccnc21` has a documented growth of 71.3

----------
A collection of compounds and their measured growth
System: SK-MEL-28 melanoma
assay: NCI-60 one-dose screen, 48 h (100 = growth as untreated, 0 = no growth, -100 = all killed)
measurement.conditions: 10 µM unless noted
The panel holds about 83,000 compounds, 20% with a hit somewhere; the sample as a whole holds those more often.
Dear colleague, please return just the value in %, with no unit written.

CC1(C)c2ccccc2C(=O)C1(Br)Cc1ccccc1 (stereo not given) = 95.8
COc1cc(/C=C2\C(=O)N(CC(O)COc3cc(O)c4c(=O)cc(-c5ccccc5)oc4c3)c3ccccc32)cc(OC)c1O (stereo not given) = 92
C[C@]12CC[C@@H]3c4ccc(O)cc4CC[C@H]3[C@@H]1C[C@H](O)[C@@H]2O = 96.5

# growth of `O=C(/C=C/c1cccc(O)c1)c1ccccc1O` = 98.2

Input `Cc1ccncc1C(=O)O` . Output growth: 95.4

`COc1cc2nc(Cl)nc(Nc3cccc(C(=O)/C=C/c4ccccc4)c3)c2cc1OC` has a reported growth of 56.4

Numbers sourced from PubChem BioAssay (NCI).
